# Measurement Notes: protein stability index of a GFP-peptide fusion (GPS, HEK-293T) (PSI 1-6); higher = more stable;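 also: 24-mer peptide tiles fused after GFP, lentivirally expressed, FACS-sorted into six equal bins by GFP/DsRed ratio, decoded by Illumina sequencing, PSI is the read-weighted mean bin number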
# Assay Setup: treatment: MLN4924 1 uM, 8 h; c terminus: a fixed tail appended
The following sequences are shown together with reported protein stability index values.

// worked examples, protein stability index included
# input So what does the record say about protein stability index for LPETLNSPLLETFSDLQVYSYRRL [SLC22A15] ?
# output 2.81

# input So what does the record say about protein stability index for DTNLGRLEDGQTPLHLSALRDDVL [ASB7] ?
# output 4.56

# input So what does the record say about protein stability index for CVLYACFILGRLCVPVFANMSREP [SOAT2] ?
# output 3.31

# input So what does the record say about protein stability index for PTPANEERRGGLPPLPLHPGGDQG [WAS] ?
# output 5.39

# input So what does the record say about protein stability index for MGVNAVHWFRKGLRLHDNPALKEC [CRY1] ?
# output 2.54

# input So what does the record say about protein stability index for GASSLPTTMNYPLWSQSYEDSSNQ [MAGEA3] ?
# output 4.57

# input So what does the record say about protein stability index for KGPGAPQYPAGTQGEQLEVPERLL [SPSB2] ?
# output 4.72

# input So what does the record say about protein stability index for CEVWACNLDEEMKKIRQVIRKYNY [CNOT7] ?
# output 2.23

# input So what does the record say about protein stability index for VELVNAACNFEPHESFFSLFSDPR [ZER1] ?
# output 2.54

# input So what does the record say about protein stability index for QSGFEMLKDVKSTLEKCEKVKTME [TRIM39] ?
# output 4.86

Continuing:
# input So what does the record say about protein stability index for CVTPNGRPISGTAVAHKTPRCPGS [SMOC2] ?
# output 3.89

# input So what does the record say about protein stability index for LPLALVTWVPMFLSTLLAPYQALR [SOAT2] ?
# output 2.95

# input So what does the record say about protein stability index for DLVLDEEGARAAGLGELGAALLQL [ESRRA] ?
# output 4.05
